Cited source: ChEMBL document CHEMBL3853264

- experimental-details: Fraction unbound in rat plasma
- Assay type: ADME, cell-free
We begin with a simple list: items and their reported fraction unbound.
Write no unit; give the number alone.

input: What measured fraction unbound goes with N#Cc1cc(S(=O)(=O)Nc2ccc(F)cn2)ccc1Oc1ccc(CO)c(Cl)c1 ?
output: 0.0043

input: Consider next the compound N#Cc1ccc(Oc2ccc(S(=O)(=O)Nc3ccc(F)cn3)cc2C#N)cc1Cl in the same way.
output: 0.0021

====

- assayed-target: Voltage-gated inwardly rectifying potassium channel KCNH2 (Homo sapiens, UniProt Q12809)
- Sequence (Q12809 whole entry): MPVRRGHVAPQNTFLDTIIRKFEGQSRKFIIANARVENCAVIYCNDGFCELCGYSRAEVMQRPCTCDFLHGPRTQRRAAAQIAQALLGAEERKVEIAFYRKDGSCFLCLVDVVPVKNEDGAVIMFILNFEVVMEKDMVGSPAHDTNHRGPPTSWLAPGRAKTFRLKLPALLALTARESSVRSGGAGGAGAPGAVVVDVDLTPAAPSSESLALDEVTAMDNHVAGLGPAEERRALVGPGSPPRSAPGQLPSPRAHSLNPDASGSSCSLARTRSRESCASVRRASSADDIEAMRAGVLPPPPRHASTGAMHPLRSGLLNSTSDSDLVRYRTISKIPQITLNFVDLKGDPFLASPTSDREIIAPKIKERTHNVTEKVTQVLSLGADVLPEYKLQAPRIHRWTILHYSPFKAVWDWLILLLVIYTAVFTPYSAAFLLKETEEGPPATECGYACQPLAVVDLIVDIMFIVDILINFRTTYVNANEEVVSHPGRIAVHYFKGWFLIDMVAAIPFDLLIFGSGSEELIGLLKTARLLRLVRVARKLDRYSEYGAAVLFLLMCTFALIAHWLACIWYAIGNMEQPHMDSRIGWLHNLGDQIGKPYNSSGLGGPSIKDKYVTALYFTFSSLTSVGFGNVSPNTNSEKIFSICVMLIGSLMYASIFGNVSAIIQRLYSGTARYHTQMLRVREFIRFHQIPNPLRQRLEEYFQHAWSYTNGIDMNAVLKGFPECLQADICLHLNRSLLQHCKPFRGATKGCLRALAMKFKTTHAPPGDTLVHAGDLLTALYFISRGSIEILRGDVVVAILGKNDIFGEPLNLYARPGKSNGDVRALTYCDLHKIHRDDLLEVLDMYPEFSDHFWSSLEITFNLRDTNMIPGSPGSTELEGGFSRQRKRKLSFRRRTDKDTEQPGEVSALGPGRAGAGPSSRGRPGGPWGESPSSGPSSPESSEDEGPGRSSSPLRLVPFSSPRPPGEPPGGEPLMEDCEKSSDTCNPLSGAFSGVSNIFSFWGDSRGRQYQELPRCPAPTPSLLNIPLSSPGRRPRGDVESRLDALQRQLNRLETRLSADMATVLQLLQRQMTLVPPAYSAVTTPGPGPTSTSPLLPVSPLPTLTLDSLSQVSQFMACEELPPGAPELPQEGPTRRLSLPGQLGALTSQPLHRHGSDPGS
- experimental-details: Inhibition of human ERG by patch clamp method
parameter: IC50

input: What measured IC50 goes with N#Cc1cc(S(=O)(=O)Nc2ccc(F)cn2)ccc1Oc1ccc(CO)c(Cl)c1 ?
output: > 100 µM
